Assign growth to each entry below.
Test system: CCRF-CEM leukemia
Assay: NCI-60 one-dose screen, 48 h (100 = growth as untreated, 0 = no growth, -100 = all killed)
Settings: 10 µM unless noted
About 83,000 compounds went through this panel and 20% of them were active in at least one assay; those are over-represented in the sample as a whole. The source made the active and inactive calls. The calls were made as follows: active = growth percent below 10; inactive = the rest.

Query block: Give the observed growth of `CCCNc1nc(N(C)O)nc(N(C)O)n1` for CCRF-CEM leukemia.
Result block: 6.78% (active)

Query block: Give the observed growth of `Cn1cc(-c2csc(-c3cn(CCCN4CCCCC4)c4ccc(Br)cc34)n2)c2cccnc21` for CCRF-CEM leukemia.
Result block: -23.8% (active)

Query block: Give the observed growth of `Cc1ccc(S(=O)(=O)Nc2ccc(-c3cc(-c4cccc(F)c4)c(C#N)c(=O)[nH]3)cc2)cc1` for CCRF-CEM leukemia.
Result block: 68.4% (inactive)

Query block: Give the observed growth of `C=C(C)[C@@H]1CC[C@]2(CN)CC[C@]3(C)[C@H](CC[C@@H]4[C@@](C)(CCCN)[C@H](C(=C)C)CC[C@]43C)[C@@H]12` for CCRF-CEM leukemia.
Result block: 66.6% (inactive)

Query block: Give the observed growth of `CCc1ccccc1NC(=O)c1sc2nc3c(cc2c1N)CCCC3` for CCRF-CEM leukemia.
Result block: 18.3% (inactive)

Query block: Give the observed growth of `S=c1[nH]nc2ccccn12` for CCRF-CEM leukemia.
Result block: 101% (inactive)

Query block: Give the observed growth of Cc1c(C)c2c(c(C)c1NC(=O)CCCCCCC(=O)O)CCC(C)(CCCC(C)CCCC(C)CCCC(C)C)O2 (stereo not drawn) for CCRF-CEM leukemia.
Result block: 71.3% (inactive)

Query block: Give the observed growth of `Oc1cccc2ccc(N/N=C/c3cc(CN4CCCCC4)c(O)c4ncccc34)nc12` for CCRF-CEM leukemia.
Result block: 10.7% (inactive)

The reported measurements were obtained from PubChem BioAssay (NCI).
